protocol_description: HT29 colon tumor cell growth inhibition, primary screen, imaging, high content imaging, 48 h, CellTiter-Glo (AID 771)
particulars: HCS imaging cell count, at 10 µM
About 55 (2%) of roughly 3,300 compounds were called active.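 Rule for the calls: active = growth inhibition above 90%, meaning viable cell count by imaging cut by more than 90% versus vehicle controls; inactive = growth inhibition below 90%.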 What follows is part of a selection rich in actives, with near analogues and random picks from the rest.
The reply should be one of these categories: Yes = active, No = inactive

1) N#Cc1c(NCCN)nc(NCc2ccccc2)c2c1CCN(Cc1ccccc1)C2: Yes

Q. Status in this test for `CCN1CCc2c(C#N)c(N3CCOCC3)nc(NCc3ccccc3)c2C1` ?
A. No

Q. Status in this test for `CCN1CCc2c(C#N)c(NCc3ccccc3)nc(NCCO)c2C1` ?
A. No

Q. Status in this test for `C=CCNc1nc(N2CCOCC2)c(C#N)c2c1CN(C)CC2` ?
A. No

Q. Status in this test for `CCN1CCc2c(C#N)c(NCc3ccccc3)nc(N(CC)CC)c2C1` ?
A. No

Q. Status in this test for `C=CCNc1nc(NCc2ccccc2)c(C#N)c2c1CN(C)CC2` ?
A. Yes

###

protocol_description: HT29 colon tumor cell growth inhibition, primary screen, imaging, high content imaging, 48 h, CellTiter-Glo (AID 771)
particulars: HCS imaging cell count, at 10 µM, stronger effect = higher value
Out of some 3,300 compounds screened, about 55 (2%) were called active. Only a selection was taken, and actives are over-represented in it overall.
// label = true (1) if growth inhibition is not less than 20%, otherwise false (0)

Example entries and their recorded answers appear below.
1. CC(=O)/C=C(\C)NCCNc1c(F)c(F)c(CO)c(F)c1F: true (1)
2. CC(C)C1Cc2c(C#N)c(N)sc(=S)c2CO1 (stereo not given): false (0)
3. CCOc1ccc(C2/C(=C(/O)c3ccc(F)cc3)C(=O)C(=O)N2CCCN(C)C)cc1 (stereo not given): true (1)

Q. Evaluate `CCOC(=O)c1ccccc1OCc1cc(/C=N/n2cncn2)ccc1OC` : growth inhibition at minimum 20%?
A. true (1)

Q. Evaluate `CNC(=O)Nc1cccc(NC(=O)NC)n1` : growth inhibition at minimum 20%?
A. true (1)

###

Would you mind telling me the reported condensed nuclei of each entry?
protocol_description: HT29 colon tumor cell growth inhibition, primary screen, imaging, high content imaging, 48 h, CellTiter-Glo (AID 771);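 for condensed nuclei: condensed means Hoechst nuclear area under control median minus 1.5 SD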
particulars: HCS imaging cell count, measured here: percent cells with condensed nuclei, at 10 µM, stronger effect = higher value
Out of some 3,300 compounds screened, about 55 (2%) were called active. What follows is part of a selection rich in actives, with near analogues and random picks from the rest.
Give bare numbers, in %.

Observe how each entry below is paired with its result.
1) CN(C)CCCN1c2ccccc2Sc2ccc(Cl)cc21: 22.1
2) CC1CN(C2CCN(C(=O)c3ccccc3Cl)CC2)CC(C)O1 (stereo unspecified): 4.01
3) CC1CN(C2CCN(C(=O)c3ccccc3)CC2)CC(C)O1 (stereo unspecified): 3.65
4) CN(C)CCC=C1c2ccccc2CCc2ccccc21: 6.45
5) CN(C)CCCN1c2ccccc2Sc2ccc(C(F)(F)F)cc21: 30.8

For this molecule ( `COc1ccc([C@@H]2Sc3ccccc3N(CCN(C)C)C(=O)[C@@H]2OC(C)=O)cc1` ), measured condensed nuclei is 2.39

###

protocol_description: HT29 colon tumor cell growth inhibition, primary screen, imaging, high content imaging, 48 h, CellTiter-Glo (AID 771)
particulars: HCS imaging cell count, measured here: ATP CellTiter-Glo viability inhibition, at 10 µM, stronger effect = higher value
About 55 (2%) of roughly 3,300 compounds were called active. For the sample, actives were picked, then their nearest neighbours and some compounds at random.
Would you mind telling me the reported growth inhibition of each entry?
One number for each entry, in %.

Observe how each entry below is paired with its result.
1) COc1cccc(N2CCN(c3ncnc4c3[nH]c3ccccc34)CC2C)c1 (stereo not given): 62.2
2) C=CCOC(=O)C1=C(C)NC(SCC(=O)N(CC)CC)=C(C#N)C1c1ccco1 (stereo not given): -41.1
3) C=CCOC(=O)C1=C(C)NC(SCC(=O)N(CC)CC)=C(C#N)C1c1ccccc1 (stereo not given): 3.16

Provide growth inhibition values for the following items, in order.
1. CCOC(=O)C1=C(c2ccccc2)NC(SCC(=O)Nc2ccccc2C)=C(C#N)C1c1ccco1 (stereo not given)
2. CCN(CC)C(=O)CSC1=C(C#N)C(c2ccco2)C(C(=O)OCCOC)=C(C)N1 (stereo not given)

A.
1: 75.3; 2: 20.6
